experiment: Dissociation of chelates in aq. 0.1M HCl at 80° C. (acid decomplexation kinetic inertness) (Chart 19); format: physicochemical; conditions: 1 day
observedProperty: fraction of intact chelate (%)
# unit: % | format: bare number

# count of solved cases: 2
O=P1(c2ccccc2)C[N@@]2CC[N@]3CC[N@@](CC[N@](CC2)Cc2cccc(n2)-c2cnnn2Cc2cccc(n2)C3)CP(=O)(c2ccccc2)[O][Gd][O]1 (stereo partly drawn) [TD925] :: 98
O=C1C[N@@]2CC[N@]3CC[N@@](CC[N@](CC2)Cc2cccc(n2)-c2cnnn2Cc2cc(-c4ccccc4)cc(n2)C3)CC(=O)[O][Yb][O]1 [TD602] :: 100

Let us move to another entry and its fraction of intact chelate.
So for O=C1C[N@@]2CC[N@]3CC[N@@](CC[N@](CC2)Cc2cccc(n2)-c2cnnn2Cc2cc(-c4ccccc4)cc(n2)C3)CC(=O)[O][Ce][O]1 [TD870] , the logged fraction of intact chelate turned out to be 0

---

test: Dissociation of chelates in aq. 0.1M HCl at 80° C. (acid decomplexation kinetic inertness) (Chart 19); type: physicochemical; details: 1 day
observedProperty: fraction of intact chelate (%)
# unit: % | format: bare number

O=C1C[N@@]2CC[N@]3CC[N@@](CC[N@](CC2)Cc2cccc(n2)-c2cn(nn2)Cc2cc(-c4ccccc4)cc(n2)C3)CC(=O)[O][Gd][O]1 [TD875] :: 0
O=C1C[N@@]2CC[N@]3CC[N@@](CC[N@](CC2)Cc2cccc(n2)-c2cnnn2Cc2cc(-c4ccccc4)cc(n2)C3)CC(=O)[O][Ho][O]1 [TD648] :: 100
O=C([O-])CN1CCN2CCN(CC(=O)[O-])CCN(CC1)Cc1cccc(n1)-c1cnnn1Cc1cc(-c3ccccc3)cc(n1)C2.[Ca+2] [TD863] :: 0
O=C1C[N@@]2CC[N@]3CC[N@@](CC[N@](CC2)Cc2cccc(n2)-c2cn(nn2)Cc2cc(-c4ccccc4)cc(n2)C3)CC(=O)[O][Cd][O]1 [TD900] :: 0
O=C1C[N@@]2CC[N@]3CC[N@@](CC[N@](CC2)Cc2cccc(n2)-c2cnnn2Cc2cc(-c4ccccc4)cc(n2)C3)CC(=O)[O][La][O]1 [TD651] :: 0
O=C1C[N@@]2CC[N@]3CC[N@@](CC[N@](CC2)Cc2cccc(n2)-c2cnnn2Cc2cc(-c4ccccc4)cc(n2)C3)CC(=O)[O][Dy][O]1 [TD866] :: 100

So for O=C1C[N@@]2CC[N@]3CC[N@@](CC[N@](CC2)Cc2cccc(n2)-c2cn(nn2)Cc2cc(-c4ccccc4)cc(n2)C3)CC(=O)[O][Lu][O]1 [TD874] , the logged fraction of intact chelate turned out to be 0

So for O=C([O-])CN1CCN2CCN(CC(=O)[O-])CCN(CC1)Cc1cccc(n1)-c1cnnn1Cc1cc(-c3ccccc3)cc(n1)C2.[Pb+2] [TD876] , the logged fraction of intact chelate turned out to be 0

So for O=C1C[N@@]2CC[N@]3CC[N@@](CC[N@](CC2)Cc2cccc(n2)-c2cnnn2Cc2cc(-c4ccccc4)cc(n2)C3)CC(=O)[O][Cd][O]1 [TD880] , the logged fraction of intact chelate turned out to be 100

So for O=C1C[N@@]2CC[N@]3CC[N@@](CC[N@](CC2)Cc2cccc(n2)-c2cnnn2Cc2cc(-c4ccccc4)cc(n2)C3)CC(=O)[O][Tb][O]1 [TD600] , the logged fraction of intact chelate turned out to be 100

So for O=C([O-])CN1CCN2CCN(CC(=O)[O-])CCN(CC1)Cc1cccc(n1)-c1cnnn1Cc1cc(-c3ccccc3)cc(n1)C2.[Zn+2] [TD890] , the logged fraction of intact chelate turned out to be 0

So for O=C1C[N@@]2CC[N@]3CC[N@@](CC[N@](CC2)Cc2cccc(n2)-c2cnnn2Cc2cc(-c4ccccc4)cc(n2)C3)CC(=O)[O][Y][O]1 [TD649] , the logged fraction of intact chelate turned out to be 100

---

assay: Dissociation of chelates in aq. 0.1M HCl at 80° C. (acid decomplexation kinetic inertness) (Chart 19); type: physicochemical; conditions: 1 month
observedProperty: fraction of intact chelate (%)
# unit: % | format: bare number

O=C1C[N@@]2CC[N@]3CC[N@@](CC[N@](CC2)Cc2cccc(n2)-c2cnnn2Cc2cc(-c4ccccc4)cc(n2)C3)CC(=O)[O][Er][O]1 :: 100
O=C1C[N@@]2CC[N@]3CC[N@@](CC[N@](CC2)Cc2cccc(n2)-c2cnnn2Cc2cc(-c4ccccc4)cc(n2)C3)CC(=O)[O][Yb][O]1 :: 100

Let us move to another entry and its fraction of intact chelate.
So for O=C1C[N@@]2CC[N@]3CC[N@@](CC[N@](CC2)Cc2cccc(n2)-c2cnnn2Cc2cc(-c4ccccc4)cc(n2)C3)CC(=O)[O][Y][O]1 , the logged fraction of intact chelate turned out to be 100

---

experiment: Dissociation of chelates in aq. 0.1M HCl at RT (acid decomplexation kinetic inertness) (Chart 20); assay type: physicochemical; details: 1 month
Entries and their fraction of intact chelate
# unit: % | format: bare number

# count of solved cases: 2
O=C([O-])CN1CCN2CCN(CC(=O)[O-])CCN(CC1)Cc1cccc(n1)-c1cnnn1Cc1cc(-c3ccccc3)cc(n1)C2.[Pb+2] :: 0
O=C1C[N@@]2CC[N@]3CC[N@@](CC[N@](CC2)Cc2cccc(n2)-c2cnnn2Cc2cc(-c4ccccc4)cc(n2)C3)CC(=O)[O][Cd][O]1 :: 100

So for O=C1C[N@@]2CC[N@]3CC[N@@](CC[N@](CC2)Cc2cccc(n2)-c2cnnn2Cc2cc(-c4ccccc4)cc(n2)C3)CC(=O)[O][Tb][O]1 , the logged fraction of intact chelate turned out to be 100

---

assay: Formation of 1,5-cz-[Ln(Lig)] from Lig and Ln^III ions (metal dependent click-zip), MOPS/NaOH buffer pH 7.0, analytical HPLC (Charts 1, 2); details: Ho^III; after 1 week at 80° C.; MOPS/NaOH buffer pH 7.0
observedProperty: conversion to 1,5-cz-[Ln(Lig)], Ho^III

# count of solved cases: 6
CC(C)(C#Cc1cccc(CN2CCN(CC(=O)O)CCN(Cc3cccc(CN=[N+]=[N-])n3)CCN(CC(=O)O)CC2)n1)NC(=O)OC(C)(C)C :: 1%
C#Cc1cccc(CN2CCN(CC(=O)O)CCN(Cc3cccc(CN=[N+]=[N-])n3)CCN(CP(=O)(O)O)CC2)n1 :: 93%
C#Cc1cccc(CN2CCN(CC(=O)O)CCN(Cc3cc(C(=O)OC)cc(CN=[N+]=[N-])n3)CCN(CC(=O)O)CC2)n1 :: 0%
[N-]=[N+]=NCc1cccc(CN2CCN(CC(=O)O)CCN(Cc3cccc(C#CC4CC4)n3)CCN(CC(=O)O)CC2)n1 :: 77%
[N-]=[N+]=NCc1cccc(CN2CCN(CC(=O)O)CCN(Cc3cccc(C#CC45CC6CC(CC(C6)C4)C5)n3)CCN(CC(=O)O)CC2)n1 :: 89%
[N-]=[N+]=NCc1cccc(CN2CCN(CC(=O)O)CCN(Cc3cccc(C#CC4CCNCC4)n3)CCN(CC(=O)O)CC2)n1 :: 86%

Let us move to another entry and its conversion to 1,5-cz-[Ln(Lig)], Ho^III.
So for C#Cc1cccc(CN2CCN(CC(=O)O)CCN(Cc3cc(Cl)cc(CN=[N+]=[N-])n3)CCN(CC(=O)O)CC2)n1 , the logged conversion to 1,5-cz-[Ln(Lig)], Ho^III turned out to be 94%

---

Entries and their conversion to 1,5-cz-[Ln(Lig)], Er^III
test: Formation of 1,5-cz-[Ln(Lig)] from Lig and Ln^III ions (metal dependent click-zip), MOPS/NaOH buffer pH 7.0, analytical HPLC (Charts 1, 2); conditions: Er^III; after 1 week at 80° C.; MOPS/NaOH buffer pH 7.0
# unit: % | format: bare number

# count of solved cases: 3
C#CCNC(=O)CN1CCN(CC(=O)O)CCN(Cc2cc(-c3ccccc3)cc(CN=[N+]=[N-])n2)CCN(CC(=O)O)CC1 :: 0
[N-]=[N+]=NCc1cccc(CN2CCN(CC(=O)O)CCN(Cc3cccc(C#CI)n3)CCN(CC(=O)O)CC2)n1 :: 39
C#Cc1cccc(CN2CCN(CC(=O)O)CCN(Cc3cc(N(C)C)cc(CN=[N+]=[N-])n3)CCN(CC(=O)O)CC2)n1 :: 96

Let us move to another entry and its conversion to 1,5-cz-[Ln(Lig)], Er^III.
So for C#Cc1cccc(CN2CCN(CC(=O)NCC(=O)O)CCN(Cc3cc(-c4ccccc4)cc(CN=[N+]=[N-])n3)CCN(CC(=O)NCC(=O)O)CC2)n1 , the logged conversion to 1,5-cz-[Ln(Lig)], Er^III turned out to be 32

---

assay: Formation of 1,5-cz-[M(Lig)] from Lig and M^III ions (metal dependent click-zip) (Charts 4, 5); assay type: physicochemical; conditions: 1 week at 80° C.; MOPS/NaOH buffer pH 7.0; TD728, TD827 in 50% i-PrOH; TD714 sum of two diastereoisomers
Please respond with Condition met when measured conversion to 1,5-cz-[M(Lig)], Y^III is strictly beneath 70%, and with Condition not met in all other cases.

Record excerpt, results attached:
CC(C)[Si](C#Cc1cccc(CN2CCN(CC(=O)O)CCN(Cc3cccc(CN=[N+]=[N-])n3)CCN(CC(=O)O)CC2)n1)(C(C)C)C(C)C :: Condition met
C#Cc1cccc(CN2CCN(CP(=O)(O)c3ccccc3)CCN(Cc3cccc(CN=[N+]=[N-])n3)CCN(CP(=O)(O)c3ccccc3)CC2)n1 :: Condition met
C#CCN(CC#C)CCN1CCN(CC(=O)O)CCN(Cc2cc(-c3ccccc3)cc(CN=[N+]=[N-])n2)CCN(CC(=O)O)CC1 :: Condition met

query: Problem: For the molecule C#Cc1cccc(CN2CCN(CC(=O)O)CCN(Cc3cc(Cl)cc(CN=[N+]=[N-])n3)CCN(CC(=O)O)CC2)n1 , is conversion to 1,5-cz-[M(Lig)], Y^III under 70%?
result: Condition not met

query: Problem: For the molecule C#Cc1cccc(CN2CCN(CC(=O)O)CCN(Cc3cc(-c4ccc(C(=O)O)cc4)cc(CN=[N+]=[N-])n3)CCN(CC(=O)O)CC2)n1 , is conversion to 1,5-cz-[M(Lig)], Y^III under 70%?
result: Condition not met

query: Problem: For the molecule C#Cc1cccc(CN2CCN(CCC(=O)O)CCN(Cc3cccc(CN=[N+]=[N-])n3)CCN(CCC(=O)O)CC2)n1 , is conversion to 1,5-cz-[M(Lig)], Y^III under 70%?
result: Condition met
